I'd be grateful if you could share measured OD450 for these entries.
TESTED TARGET: T1, human MSLN-R1-his protein (human, UniProt Q13421 296-390)
T1 construct: Region 1 of human mesothelin, made in HEK293E cells, His-tagged; also called human MSLN-R1 protein; hMSLN-R1-his; not shown: His tag
T1 chain: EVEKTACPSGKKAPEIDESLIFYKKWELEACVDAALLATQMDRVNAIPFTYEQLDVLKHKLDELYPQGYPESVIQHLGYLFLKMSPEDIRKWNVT
ASSAY PROTOCOL: ELISA on coated MSLN-R1; antibody 0.001 nM
Numbers only, in OD450.

Take a look at these entries with their results.
{"columns": ["BINDER", "MEASURED PROPERTY", "MEASURED RESULT"],
 "data": [
  ["S009-F8-9.16 (antibody, human IgG1, kappa, V domains shown) VH: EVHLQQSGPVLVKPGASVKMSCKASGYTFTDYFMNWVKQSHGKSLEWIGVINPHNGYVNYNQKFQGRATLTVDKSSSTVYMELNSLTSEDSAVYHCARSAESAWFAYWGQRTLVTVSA VL: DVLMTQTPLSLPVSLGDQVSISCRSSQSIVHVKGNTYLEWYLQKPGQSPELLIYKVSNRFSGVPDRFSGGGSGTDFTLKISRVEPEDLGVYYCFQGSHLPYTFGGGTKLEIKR", "OD450", 0.04],
  ["S009-F8-4.5 (antibody, human IgG1, kappa, V domains shown) VH: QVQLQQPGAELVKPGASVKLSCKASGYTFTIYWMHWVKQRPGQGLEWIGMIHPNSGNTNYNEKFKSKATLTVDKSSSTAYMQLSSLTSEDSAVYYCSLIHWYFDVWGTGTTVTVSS VL: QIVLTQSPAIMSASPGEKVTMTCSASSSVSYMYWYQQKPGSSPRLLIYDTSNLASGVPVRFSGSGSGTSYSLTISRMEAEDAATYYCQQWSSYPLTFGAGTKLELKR", "OD450", 0.05],
  ["S009-F8-18.9 (antibody, human IgG1, kappa, V domains shown) VH: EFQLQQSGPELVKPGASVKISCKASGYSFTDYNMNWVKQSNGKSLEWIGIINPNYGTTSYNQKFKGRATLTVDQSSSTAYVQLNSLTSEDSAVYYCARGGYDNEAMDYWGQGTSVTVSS VL: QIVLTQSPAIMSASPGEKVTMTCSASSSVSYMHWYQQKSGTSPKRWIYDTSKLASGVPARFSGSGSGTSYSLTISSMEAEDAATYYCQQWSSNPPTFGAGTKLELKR", "OD450", 0.15],
  ["S009-F8-8.22 (antibody, human IgG1, kappa, V domains shown) VH: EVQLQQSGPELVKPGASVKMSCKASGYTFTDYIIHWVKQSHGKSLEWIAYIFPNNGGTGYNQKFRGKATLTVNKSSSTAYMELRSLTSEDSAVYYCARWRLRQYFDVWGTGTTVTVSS VL: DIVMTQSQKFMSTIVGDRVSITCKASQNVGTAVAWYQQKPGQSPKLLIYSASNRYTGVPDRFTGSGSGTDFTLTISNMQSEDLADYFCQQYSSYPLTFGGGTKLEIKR", "OD450", 0.16]
]}

Okay, next one:
Quick note, OD450 for S009-F8-22.23 (antibody, human IgG1, kappa, V domains shown) VH: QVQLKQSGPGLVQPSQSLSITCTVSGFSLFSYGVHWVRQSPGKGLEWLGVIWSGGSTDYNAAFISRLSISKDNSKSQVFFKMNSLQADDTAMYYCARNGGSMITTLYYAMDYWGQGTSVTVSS VL: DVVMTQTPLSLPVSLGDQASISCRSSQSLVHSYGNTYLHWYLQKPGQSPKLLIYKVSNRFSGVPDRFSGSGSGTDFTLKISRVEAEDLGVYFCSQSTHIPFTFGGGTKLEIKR landed at 0.36
